Target: Human IFNβ (mature human interferon beta) (human, UniProt P01574 22-187)
Sequence (P01574 22-187): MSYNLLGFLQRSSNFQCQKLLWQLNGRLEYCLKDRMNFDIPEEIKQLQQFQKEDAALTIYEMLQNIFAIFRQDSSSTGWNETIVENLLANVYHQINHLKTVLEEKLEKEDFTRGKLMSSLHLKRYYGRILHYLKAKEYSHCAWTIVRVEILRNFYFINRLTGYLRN
Assay: cell-based or functional assay
observed_property: IC50 (pM) pSTAT1 Inhibition
Answer format: numeric, pM implied, no suffix.

Entry CTI-AF1 (antibody, human IgG1, kappa, V domains shown, Humanized IgG1; The C-terminal K of the heavy chain is printed as optional, '(K)'; also called anti-IFNβ antibody; humanized IgG1 antibody against interferon beta) VH: QVQLVQSGAEVKKPGSSVKVSCKASGYTFSRYWMHWVRQAPGQGLEWMGHIDPSDSYTYYNQKFKGRVTITADESTSTAYMELSSLRSEDTAVYYCARWDYGNLLFEYWGQGTLVTVSS VL: DIQMTQSPSSLSASVGDRVTITCRTSQDIGNYLNWYQQKPGKAFKLLIYSTSRLHSGVPSRFSGSGSGTDFTLTISSLQPEDFATYYCQQGIILPITFGGGTKVEIKR ; IC50 (pM) pSTAT1 Inhibition = 4
